Source: the RNAGym collection of RNA variant scans (doi:10.7554/elife.80360)

B1: CPEB3 Ribozyme (parent)
chain: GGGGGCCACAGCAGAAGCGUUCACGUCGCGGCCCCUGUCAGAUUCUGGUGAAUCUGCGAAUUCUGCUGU

Variants of: B1
Experiment Summary: self-cleavage, relative activity (ratio to wild type); higher = more cleavage; co-transcriptional
Is self-cleavage at least 0.3? Then 1. If not, 0.

A8C U21C | 1

Ask | # bool: self-cleavage of A52U C54A >= 0.3
Reply | 1

Ask | Is self-cleavage at least 0.3? Consider U43G G56C
Reply | 1

Ask | Could you verify whether the entry U46G U55G shows self-cleavage of no less than 0.3?
Reply | 1
